pEC50 reference
Biological target: FPR1 (Homo sapiens, UniProt P21462)
Sequence (P21462 whole entry, species assumed): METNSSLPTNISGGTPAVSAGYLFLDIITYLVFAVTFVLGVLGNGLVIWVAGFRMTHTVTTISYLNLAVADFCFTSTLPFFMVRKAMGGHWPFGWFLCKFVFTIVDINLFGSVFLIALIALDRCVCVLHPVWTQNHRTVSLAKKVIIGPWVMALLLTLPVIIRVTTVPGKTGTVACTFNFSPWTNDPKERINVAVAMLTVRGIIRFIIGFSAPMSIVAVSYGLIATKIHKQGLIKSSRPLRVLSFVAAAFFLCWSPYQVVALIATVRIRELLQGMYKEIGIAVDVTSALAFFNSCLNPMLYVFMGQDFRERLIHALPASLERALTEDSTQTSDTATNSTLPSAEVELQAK
Assay: Change in calcium activity by peptide, FPR1 activation effect
Settings: calcium activity (Fura-2), graded per Table 3, read-out: EC50 for [Ca^2+] FPR1
pEC50: −log10 of the molar value. Peptide text beside a SMILES is read from it.

Take a look at these entries with their results.
{"compound": "CSCC[C@H](NC(=O)[C@H](CCCNC(=N)N)NC(C)=O)C(=O)N[C@@H](CCCNC(=N)N)C(=O)N[C@@H](Cc1ccc(O)cc1)C(=O)N[C@@H](Cc1ccc(O)cc1)C(=O)N1CCC[C@H]1C(=O)N[C@H](CCSC)C(N)=O [Peptide 119] (HELM PEPTIDE1{[ac].R.M.R.Y.Y.P.[dM].[am]}$$$$V2.0)", "pEC50": "6.00 to 7.00"}
{"compound": "CSCC[C@H](NC(C)=O)C(=O)N[C@@H](CCCNC(=N)N)C(=O)N[C@@H](Cc1ccc(O)cc1)C(=O)N[C@@H](CCCCN)C(=O)N[C@@H](Cc1ccc(O)cc1)C(=O)N[C@H](CCSC)C(N)=O [Peptide 42] (HELM PEPTIDE1{[ac].M.R.Y.K.Y.[dM].[am]}$$$$V2.0)", "pEC50": "< 5.00"}

# pEC50 measured on FPR1 (Homo sapiens, UniProt P21462) for item CSCC[C@@H](NC(=O)[C@@H](NC(=O)[C@H](CCCCN)NC(=O)[C@H](Cc1ccc(O)cc1)NC(=O)[C@H](CCCNC(=N)N)NC(=O)[C@H](Cc1c[nH]c2ccccc12)NC(=O)[C@@H](N)CCCNC(=N)N)C(C)C)C(N)=O [Peptide 1] (HELM PEPTIDE1{R.W.R.Y.K.V.[dM].[am]}$$$$V2.0) = < 5.00

The measured pEC50 that CSCC[C@H](NC(=O)[C@@H](N)CCCNC(=N)N)C(=O)N[C@@H](CCCNC(=N)N)C(=O)N[C@@H](Cc1ccc(O)cc1)C(=O)N[C@@H](CCCNC(=N)N)C(=O)N[C@H](C(=O)N[C@H](CCSC)C(N)=O)C(C)C [Peptide 30] (HELM PEPTIDE1{R.M.R.Y.R.V.[dM].[am]}$$$$V2.0) showed for FPR1 (Homo sapiens, UniProt P21462) is < 5.00

pEC50 on FPR1 (Homo sapiens, UniProt P21462) for CSCC[C@@H](NC(=O)[C@H](Cc1ccc(O)cc1)NC(=O)[C@H](Cc1ccccc1)NC(=O)[C@H](Cc1ccc(O)cc1)NC(=O)[C@H](CCCNC(=N)N)NC(=O)[C@H](Cc1c[nH]c2ccccc12)NC(=O)[C@@H](N)CCCNC(=N)N)C(N)=O [Peptide 156] (HELM PEPTIDE1{R.W.R.Y.F.Y.[dM].[am]}$$$$V2.0) is < 5.00

The reported FPR1 (Homo sapiens, UniProt P21462) pEC50 of CSCC[C@@H](NC(=O)[C@@H](NC(=O)[C@H](Cc1ccccc1)NC(=O)[C@H](Cc1ccc(O)cc1)NC(=O)[C@H](CCCNC(=N)N)NC(=O)[C@H](Cc1c[nH]c2ccccc12)NC(=O)[C@@H](N)CCCNC(=N)N)C(C)C)C(N)=O [Peptide 160] (HELM PEPTIDE1{R.W.R.Y.F.V.[dM].[am]}$$$$V2.0) is 5.00 to 6.00

Per the reported FPR1 (Homo sapiens, UniProt P21462) data, CSCC[C@H](NC(=O)[C@@H](N)Cc1c[nH]cn1)C(=O)N[C@@H](CCCNC(=N)N)C(=O)N[C@@H](Cc1ccc(O)cc1)C(=O)N[C@@H](CCCCN)C(=O)N[C@@H](Cc1ccc(O)cc1)C(=O)N[C@H](CCSC)C(N)=O [Peptide 44] (HELM PEPTIDE1{H.M.R.Y.K.Y.[dM].[am]}$$$$V2.0) has pEC50 of < 5.00
